Assignment: determine reported solubility kinetic for the given molecules.
- conditions_used: buffer; pH 7.4; 200.0 µM
Output spec: scalar in µg/mL, unitless text.

Specify solubility kinetic for `CNc1nccc(-c2ccc(Cl)cc2)c1C#N` and stop.
1.5

Please look at this molecule and report its solubility kinetic: `CC(=O)O.O=S(=O)(Cc1ccccc1)N1CCNCC1`
34.3

Kindly indicate its recorded solubility kinetic. Item: Cc1ccc(S(=O)(=O)NC(C)C(=O)NC(C)c2cccs2)cc1 (configuration not stated)
51.6

Assign solubility kinetic to the following record: `CCOc1nc2ccccc2cc1C=O`
6.6

Please give measured solubility kinetic of the following entry: `O=C(CN1CCCCC1)n1c2ccccc2c2ccccc21`
24.3

---

Answer each item with its documented solubility kinetic.
- conditions_used: buffer; pH 7.4; 200.0 µM

Tell me solubility kinetic reported for `CCCCOC(=O)c1ccc(NC(=O)C(=O)NCCN(C)C)cc1`
45.7 µg/mL

Kindly indicate its recorded solubility kinetic. Item: `CCN(CC(=O)NC(=O)NC1CCCCC1)Cc1ccccc1`
47 µg/mL

State its solubility kinetic: `COc1ccccc1NC(=O)c1cccc2c(Br)cccc12`
< 0.8 µg/mL

Hello, please tell me recorded solubility kinetic for this one: `Cc1nc(NC(=O)CSC2=NCCS2)sc1C(=O)N(C)C`
> 51.7 µg/mL

Read the entry `C/C(=N/NC(=O)c1ccccn1)c1ccncc1` and write its reported solubility kinetic.
> 36 µg/mL

Report measured solubility kinetic; entry is `Cc1onc(-c2ccccc2)c1C(=O)N(Cc1ccccn1)Cc1ccccn1`
> 57.7 µg/mL

Fill in solubility kinetic for record `C=CC[N+]1(CC=C)CCOCC1.[Br-]`
> 37.2 µg/mL

Note down solubility kinetic recorded for `CC(=O)c1ccc(N2CCN(c3ncccn3)CC2)c([N+](=O)[O-])c1`
39.2 µg/mL

Tell me solubility kinetic reported for `COc1ccccc1N1C(=O)C(=O)N(C)C1=O`
> 35.1 µg/mL

Return value of solubility kinetic for input `CCC(=O)Nc1nc(-c2ccccc2)nc(SC)c1C(C)=O` , no commentary.
0.4 µg/mL

In one line, give reported solubility kinetic of the entry `CC(=O)Nc1cccc(-c2nc3ccccc3[nH]2)c1` .
> 37.7 µg/mL

Indicate the recorded solubility kinetic value for this compound: `CCn1c(CO)nc2c1c(=O)[nH]c(=O)n2Cc1ccccc1`
> 45 µg/mL

# return recorded solubility kinetic for input `Brc1ccc(OCCN2CCOCC2)cc1`
29 µg/mL

Give recorded solubility kinetic. `Cc1ccc(S(=O)(=O)N2CCCCC2)cc1C(=O)OCC(=O)N1c2ccccc2NC(=O)C1(C)C`
3.2 µg/mL

Give solubility kinetic for CNS(=O)(=O)c1cccc(C(=O)OC2CCOC2=O)c1 (centres undefined)
> 44.9 µg/mL

Write down solubility kinetic measured for item COc1ccc2cc(C(C)C(=O)NC3CCC(O)CC3)ccc2c1 (centres undefined)
25.3 µg/mL

Indicate the recorded solubility kinetic value for this compound: `COc1ccc(-c2csc(N(C)C(=O)c3ccco3)n2)cc1`
< 0.3 µg/mL

For the compound `COc1ccc(Br)cc1CN1CCCCCC1` , give its reported solubility kinetic.
37.4 µg/mL

Name the recorded solubility kinetic of the item COc1ccc(C2NC(=O)c3ccccc3N2)cc1 (centres undefined) in your answer.
33.2 µg/mL

Name the recorded solubility kinetic of the compound listed here: `N#Cc1ccc(OCC(=O)NC2=NCCS2)cc1`
> 39.2 µg/mL

Given `O=C(COC(=O)CCSc1ccccc1)NCc1ccccc1` , respond with its solubility kinetic.
> 49.4 µg/mL

Write down solubility kinetic measured for item `O=C(CCCSc1ccccc1)Nc1cccc(CO)c1`
> 45.2 µg/mL

Supply measured solubility kinetic of `CCNC(=S)Nc1ccc(Cc2ccncc2)cc1` in your reply.
38.3 µg/mL

Determine its reported solubility kinetic: COC(=O)CC1NCCc2cc(OC)c(OC)cc21 (centres undefined)
> 39.8 µg/mL

Could you please provide reported solubility kinetic for `COC1=C(N2CCOCC2)C(=O)c2ccccc2C1=O` ? Thanks!
> 41 µg/mL

Tell me its solubility kinetic given `Cc1ccc(NC(=O)CNC(=O)c2ccc(C)o2)cc1` as the entry.
> 40.8 µg/mL

Provide only the value of recorded solubility kinetic for `CCCN1CCN(C(=S)Nc2sc(CC)cc2C(=O)OC)CC1`
0.6 µg/mL

Identify the reported solubility kinetic for the following entry. `COc1ccc2[nH]c(=O)c(CN(C)C(=O)c3cccs3)cc2c1`
12.4 µg/mL

Identify solubility kinetic associated with the compound `Cc1cccc(C)c1NC(=O)CNC(=O)CNC(=O)c1ccc2c(c1)OCO2`
> 57.5 µg/mL

Find the measured solubility kinetic of CCC(C)n1c(O)c(C=NCCN2CCOCC2)c(=O)[nH]c1=S (centres undefined) and report it.
> 51.1 µg/mL

Let me know recorded solubility kinetic for `CCN(CC(=O)N1CCCCCC1)S(=O)(=O)c1ccc(C)cc1` , thanks.
> 50.8 µg/mL

Using known records, supply solubility kinetic for CC(NS(=O)(=O)c1ccccc1)C(=O)NC1CCCC1 (centres undefined)
> 44.5 µg/mL

Please give the documented solubility kinetic of Cc1c(O)nc(SC2CC(=O)N(c3cc(Cl)cc(Cl)c3)C2=O)[nH]c1=O (centres undefined)
> 60 µg/mL

Give recorded solubility kinetic. O=C(Nc1nccs1)C1CC(=O)N(Cc2ccco2)C1 (centres undefined)
40.7 µg/mL

Give a short answer stating reported solubility kinetic for CCOC(=O)C1=C(COC(=O)c2ccc([N+](=O)[O-])s2)NC(=O)NC1C (centres undefined) .
> 55.4 µg/mL

Please report the measured solubility kinetic for `COC(=O)[C@H](Cc1ccccc1)NC(=O)N(C)Cc1ccccc1`
> 49 µg/mL

Indicate the recorded solubility kinetic value for this compound: `O=C(NC(=S)Nc1ccc(Cl)cc1)c1cncc(Br)c1`
3.4 µg/mL

Quickly give me recorded solubility kinetic for `Cc1cccc(NC(=O)Nc2ccc(OCc3ccccc3)cc2)n1`
< 0.2 µg/mL

Output measured solubility kinetic for this item: `CC(=O)Nc1ccc(CC(=O)O)cc1`
> 29 µg/mL

Look up solubility kinetic of `CCOC(=O)Cc1csc(NC(=O)c2cccc([N+](=O)[O-])c2)n1` and report it.
> 50.3 µg/mL

Entry `O=C(/C=C/c1ccc(F)cc1)N1CCN(Cc2ccccc2)CC1` needs its solubility kinetic filled in; supply it.
44.5 µg/mL

Give recorded solubility kinetic. `COc1cc(C=O)ccc1OC(=O)N1CCOCC1`
> 39.8 µg/mL

Report solubility kinetic for `C=CCn1c(NCc2ccc(OC)cc2)nc2ccccc21`
33.7 µg/mL

Return value of solubility kinetic for input `CCOc1ccc(CCNC(=O)c2ccc(=O)[nH]c2)cc1OCC` , no commentary.
> 49.6 µg/mL

Give solubility kinetic for the following compound: `Cc1ccc2nc(-c3ccccn3)[nH]c2c1.Cl`
> 36.9 µg/mL

Output solubility kinetic of `CC(C)[C@H](NC(=O)c1ccccc1)C(=O)OCC(=O)c1c(N)n(C)c(=O)n(C)c1=O`
> 62.5 µg/mL

Specify reported solubility kinetic for the compound shown: CN(C(=O)c1ccc(Cl)cc1)C1CCS(=O)(=O)C1 (centres undefined)
41.2 µg/mL

State, in one line, measured solubility kinetic of `Cc1ccc(S(=O)(=O)c2c(C)cc(C)nc2N2CCCC2)cc1`
1.2 µg/mL

State, in one line, measured solubility kinetic of `O=C(NCCCn1ccnc1)c1cccc(Cl)c1`
> 39.6 µg/mL

---

- conditions_used: buffer; pH 7.4; 200.0 µM
readout_label: solubility kinetic

Indicate its recorded solubility kinetic; the molecule in question is `CC(=O)Nc1ccc(NC(=O)c2c(-c3ccccc3)noc2C)cn1`
11.1 µg/mL

Quote solubility kinetic reported for `c1ccc2c(c1)cnc1ccccc12` please.
7.7 µg/mL

Output solubility kinetic of O=C(O)C1CCC(N2C(=O)C3C4CCC(C4)C3C2=O)CC1 (stereo unspecified)
> 43.7 µg/mL

Indicate the recorded solubility kinetic value for this molecule: `O=C(COC(=O)c1cc(Cl)nc(Cl)c1)NCCc1ccc(F)cc1`
> 55.7 µg/mL

Give the reported solubility kinetic for this molecule. OC(C[n+]1ccccc1)c1ccccc1.[Br-] (stereo unspecified)
> 42 µg/mL

Answer with reported solubility kinetic of Cc1ccc(N2CC(C(=O)NC3CCC(C)CC3)CC2=O)cc1 (stereo unspecified)
2.5 µg/mL

State, in one line, measured solubility kinetic of `CC(=O)N1CCN(c2ccc(NC(=O)c3ccco3)cc2)CC1`
> 47 µg/mL

Specify solubility kinetic for `CCCCSCCCNC(=S)Nc1ccccc1C` and stop.
35.3 µg/mL

Give me measured solubility kinetic, please, for this molecule: CC(NCCc1ccc(O)cc1)C(O)c1ccc(O)cc1.Cl (stereo unspecified)
> 48.6 µg/mL

Indicate the recorded solubility kinetic value for this molecule: O=C1CSC(c2ccccc2)N1Cc1ccccn1 (stereo unspecified)
> 40.6 µg/mL

Specify reported solubility kinetic for the molecule shown: `COc1ccc(C(=O)Nc2ccc3ccccc3n2)c(OC)c1OC`
2.2 µg/mL

Quote solubility kinetic reported for `COCCNC(=S)N(c1ccccc1)C(C)C` please.
> 37.9 µg/mL

Provide one value: measured solubility kinetic of `COc1ccccc1OCCCC(=O)Nc1nccs1`
23.4 µg/mL

Please report the measured solubility kinetic for `OCC1(CO)COC(c2ccccc2)=N1`
> 31.1 µg/mL

Return the recorded solubility kinetic value; entry: `O=C1NC(=O)C(=Cc2ccsc2)C(=O)N1`
> 33.3 µg/mL

Answer with the recorded solubility kinetic of `CSc1ncccc1C(=O)Nc1ccc2c(c1)OCO2` only.
30.8 µg/mL

Supply solubility kinetic value. Item: `O=S(=O)(c1ccc2c(c1)CCCN2)N1CCCCC1`
> 42.1 µg/mL

Please give the documented solubility kinetic of `Cc1ccc2c(c1)N(CC(=O)N1CCCCC1)C(=O)CO2`
> 43.3 µg/mL

Assign solubility kinetic to the following record: `Nc1cc(C(F)(F)F)cc([N+](=O)[O-])c1N`
> 33.2 µg/mL

Could you please provide reported solubility kinetic for `O=C(c1ccc(Cl)c(S(=O)(=O)N2CCc3ccccc32)c1)N1CCN(c2ccccc2O)CC1` ? Thanks!
11.3 µg/mL

Return solubility kinetic for the following molecule: `O=S(=O)(NCCCc1ccccc1)c1ccc(Br)cc1`
10.7 µg/mL

Report measured solubility kinetic; entry is `Cc1sc(NC(=O)CN2CCOCC2)c(C#N)c1C`
> 41.9 µg/mL

Fill in solubility kinetic for record `COc1ccccc1C(=O)NCC(=O)N1CCN(C/C=C/c2ccccc2)CC1`
> 59 µg/mL

Please list solubility kinetic recorded for the molecule `O=C(COC(=O)CCC(=O)c1cccs1)NCc1ccccc1`
45.6 µg/mL

Recall and state the measured solubility kinetic for `Cc1nc(NC(=O)c2cc3ccccc3o2)sc1C` .
3.1 µg/mL

Identify the reported solubility kinetic for the following entry. CCn1c(SCC(=O)NCC2CCCO2)nc2ccccc21 (stereo unspecified)
> 47.9 µg/mL
